- Test name: Plasma pharmacokinetics of Halofuginone hydrobromide in Beagle dogs (Example C)
- Condition parameters: male, Beagle, dog, in vivo, iv, 0.05 mg/kg, Mean Conc. (plasma)
Counter-ions that a name gives are not always drawn.
Assay readout: concentration at 0.083 h (ng/mL)
Give bare numbers, in ng/mL.

Given the compound O=C(C[C@@H]1NCCC[C@H]1O)Cn1cnc2cc(Br)c(Cl)cc2c1=O [Halofuginone hydrobromide] , write its reported concentration at 0.083 h.
6.96

====

- Test name: Plasma pharmacokinetics of Halofuginone hydrobromide in Beagle dogs (Example C)
- Condition parameters: male, Beagle, dog, in vivo, po, 0.15 mg/kg, Mean Conc. (plasma)
Counter-ions that a name gives are not always drawn.
Assay readout: concentration at 12 h (ng/mL)
Answers are plain numbers, in ng/mL.

Given the compound O=C(C[C@@H]1NCCC[C@H]1O)Cn1cnc2cc(Br)c(Cl)cc2c1=O [Halofuginone hydrobromide] , write its reported concentration at 12 h.
1.14

====

- Test name: Plasma pharmacokinetics of Halofuginone hydrobromide in Beagle dogs (Example C)
- Condition parameters: male, Beagle, dog, in vivo, po, 0.15 mg/kg, Mean Conc. (plasma)
Counter-ions that a name gives are not always drawn.
Assay readout: concentration at 1 h
Entry format: amount then unit.

Given the compound O=C(C[C@@H]1NCCC[C@H]1O)Cn1cnc2cc(Br)c(Cl)cc2c1=O [Halofuginone hydrobromide] , write its reported concentration at 1 h.
4.97 ng/mL

====

- Test name: Plasma pharmacokinetics of Halofuginone hydrobromide in Beagle dogs (Example C)
- Condition parameters: male, Beagle, dog, in vivo, sc, 0.03 mg/kg, Mean Conc. (plasma)
Counter-ions that a name gives are not always drawn.
Assay readout: concentration at 1 h (ng/mL)
Numbers only, in ng/mL.

Given the compound O=C(C[C@@H]1NCCC[C@H]1O)Cn1cnc2cc(Br)c(Cl)cc2c1=O [Halofuginone hydrobromide] , write its reported concentration at 1 h.
1.79

====

- Test name: Plasma pharmacokinetics of Halofuginone hydrobromide in Beagle dogs (Example C)
- Condition parameters: male, Beagle, dog, in vivo, sc, 0.03 mg/kg, Mean Conc. (plasma)
Counter-ions that a name gives are not always drawn.
Assay readout: concentration at 8 h
Entry format: amount then unit.

Given the molecule O=C(C[C@@H]1NCCC[C@H]1O)Cn1cnc2cc(Br)c(Cl)cc2c1=O [Halofuginone hydrobromide] , write its reported concentration at 8 h.
0.63 ng/mL

====

- Test name: Plasma pharmacokinetics of halofuginone in male beagle dogs (Example B)
- Type: in vivo
- Condition parameters: dog, plasma; male beagle dogs, oral 0.15 mg/kg aqueous solution, mean
Structures can show the parent of a compound that is named as a salt.
Assay readout: half-life (h)
Answers are plain numbers, in h.

Given the compound O=C(C[C@@H]1NCCC[C@H]1O)Cn1cnc2cc(Br)c(Cl)cc2c1=O [Halofuginone hydrobromide] , write its reported half-life.
14.8

====

- Test name: Plasma pharmacokinetics of halofuginone in male beagle dogs (Example B)
- Type: in vivo
- Condition parameters: male, beagle, dog, in vivo, po, 0.15 mg/kg
Structures can show the parent of a compound that is named as a salt.
Assay readout: Cmax (ng/mL)
Numbers only, in ng/mL.

Given the compound O=C(C[C@@H]1NCCC[C@H]1O)Cn1cnc2cc(Br)c(Cl)cc2c1=O [Halofuginone hydrobromide] , write its reported Cmax.
5.26

====

- Test name: Plasma pharmacokinetics of Halofuginone hydrobromide in Beagle dogs (Example C)
- Condition parameters: male, Beagle, dog, in vivo, sc, 0.03 mg/kg, Sample Conc. (plasma)
Structures can show the parent of a compound that is named as a salt.
Assay readout: concentration at 48 h (ng/mL)
Give bare numbers, in ng/mL.

Given the compound O=C(C[C@@H]1NCCC[C@H]1O)Cn1cnc2cc(Br)c(Cl)cc2c1=O [Halofuginone hydrobromide] , write its reported concentration at 48 h.
0.16
